Each entry below lists one item and its recorded pIC50 value.
systemTested: H1047R PIK3CA enzyme (Homo sapiens, UniProt P42336, H1047R)
Sequence (P42336 whole entry H1047R): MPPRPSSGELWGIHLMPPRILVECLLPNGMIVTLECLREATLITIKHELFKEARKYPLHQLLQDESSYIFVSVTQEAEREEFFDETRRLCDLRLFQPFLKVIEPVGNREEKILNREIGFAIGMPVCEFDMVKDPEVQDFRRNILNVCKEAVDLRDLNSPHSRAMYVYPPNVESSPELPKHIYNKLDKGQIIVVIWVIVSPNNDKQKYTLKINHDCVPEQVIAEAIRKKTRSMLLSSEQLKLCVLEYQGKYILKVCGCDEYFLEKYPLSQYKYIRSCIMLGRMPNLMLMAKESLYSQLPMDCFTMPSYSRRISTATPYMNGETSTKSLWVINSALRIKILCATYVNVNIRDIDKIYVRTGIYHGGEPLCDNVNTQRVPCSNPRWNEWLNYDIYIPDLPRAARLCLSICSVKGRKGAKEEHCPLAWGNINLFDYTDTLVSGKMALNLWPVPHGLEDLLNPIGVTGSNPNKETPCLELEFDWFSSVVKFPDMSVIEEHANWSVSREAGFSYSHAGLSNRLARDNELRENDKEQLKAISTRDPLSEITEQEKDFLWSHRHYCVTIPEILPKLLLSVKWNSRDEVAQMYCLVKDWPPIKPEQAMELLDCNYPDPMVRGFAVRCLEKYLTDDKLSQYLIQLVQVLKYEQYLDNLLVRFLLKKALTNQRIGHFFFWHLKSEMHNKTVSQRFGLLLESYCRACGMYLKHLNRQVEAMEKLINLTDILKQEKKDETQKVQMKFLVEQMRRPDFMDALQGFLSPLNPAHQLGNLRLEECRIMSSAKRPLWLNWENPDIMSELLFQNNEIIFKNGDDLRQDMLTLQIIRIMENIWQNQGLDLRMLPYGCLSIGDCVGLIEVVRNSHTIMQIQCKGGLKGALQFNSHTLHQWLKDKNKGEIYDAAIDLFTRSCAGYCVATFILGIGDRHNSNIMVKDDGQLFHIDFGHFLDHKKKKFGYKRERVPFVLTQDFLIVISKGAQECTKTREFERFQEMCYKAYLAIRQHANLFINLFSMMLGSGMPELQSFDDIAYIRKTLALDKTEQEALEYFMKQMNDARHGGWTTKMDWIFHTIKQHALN
Sequence (P27986 whole entry partner): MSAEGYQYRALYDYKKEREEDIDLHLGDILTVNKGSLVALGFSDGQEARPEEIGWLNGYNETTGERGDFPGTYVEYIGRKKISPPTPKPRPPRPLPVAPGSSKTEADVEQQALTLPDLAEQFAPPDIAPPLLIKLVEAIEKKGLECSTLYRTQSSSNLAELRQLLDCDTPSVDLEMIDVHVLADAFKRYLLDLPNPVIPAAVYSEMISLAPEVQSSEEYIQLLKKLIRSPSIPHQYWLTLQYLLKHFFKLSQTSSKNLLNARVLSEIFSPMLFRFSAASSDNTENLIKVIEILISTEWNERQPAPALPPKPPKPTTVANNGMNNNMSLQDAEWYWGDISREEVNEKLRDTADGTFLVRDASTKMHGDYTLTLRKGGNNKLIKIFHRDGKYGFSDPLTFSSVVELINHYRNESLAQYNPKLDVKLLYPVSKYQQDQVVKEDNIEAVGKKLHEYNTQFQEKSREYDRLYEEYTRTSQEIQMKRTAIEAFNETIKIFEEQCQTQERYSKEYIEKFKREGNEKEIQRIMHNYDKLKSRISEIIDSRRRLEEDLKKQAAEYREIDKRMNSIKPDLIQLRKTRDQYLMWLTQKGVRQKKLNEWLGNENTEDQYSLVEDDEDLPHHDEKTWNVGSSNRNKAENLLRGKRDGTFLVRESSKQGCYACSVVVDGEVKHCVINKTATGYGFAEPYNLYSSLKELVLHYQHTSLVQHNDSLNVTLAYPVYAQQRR
method: ADP-Glo Biochemical PIK3CA Kinase Assay
pIC50: −log10 of the molar value.

compound: O=C(Nc1cc(-c2cnn(C(F)F)c2)cc2c1[C@@H](c1cc(F)ccc1Cl)NC2=O)c1cc(F)cc(C(F)(F)F)c1 (single isomer, unassigned)
observedValue: 5.00 to 6.00

compound: O=C(Nc1cc(N2CC3CNC(=O)C3C2)cc2c1C(c1cc(F)ccc1Cl)NC2=O)c1cc(F)cc(C(F)(F)F)c1 (stereo not shown)
observedValue: ≥ 7.00

compound: Cc1ccccc1C1NC(=O)c2nccc(NC(=O)N3CC(C)c4ccccc43)c21 (stereo not shown)
observedValue: 6.30 to 7.00

compound: Cn1nc(Nc2cc(-c3ccc4ncnn4c3)cc3c2C(c2cc(F)ccc2Cl)NC3=O)c2cc(F)cc(C(F)(F)F)c21 (stereo not shown)
observedValue: 6.00 to 6.30

compound: O=C1NC(c2cc(F)ccc2Cl)c2c(NC(=O)C(O)c3ccccc3)cc(-c3ccc4ncnn4c3)cc21 (stereo not shown)
observedValue: 4.00 to 5.00

Dear colleague, please send me the reported pIC50 for O=C1N[C@@H](c2cc(F)ccc2Cl)c2c(NC(=O)N3C[C@@](O)(C(F)(F)F)c4cc(F)ccc43)cc(Cl)cc21 (single isomer, unassigned) when you can.
≥ 7.00

Dear colleague, please send me the reported pIC50 for CN1CCN(c2cc(-c3ccc4ncnn4c3)cc3c2C(c2cc(F)ccc2Cl)NC3=O)CC1 (stereo not shown) when you can.
4.00 to 5.00

Dear colleague, please send me the reported pIC50 for Cc1ccc2c(c1)N(C(=O)Nc1cccc3c1CN(C)C3=O)CC2 when you can.
4.00 to 5.00

Dear colleague, please send me the reported pIC50 for O=C(Nc1cc(-c2ccc3ncnn3c2)cc2c1[C@H](c1cc(F)ccc1Cl)NC2=O)c1cc(Cl)cc(Cl)c1 (stereo in doubt) when you can.
≥ 7.00

Dear colleague, please send me the reported pIC50 for O=C1NC(c2cc(Cl)ccc2Cl)c2c(NC(=O)c3nsc4ccccc34)cccc21 (stereo not shown) when you can.
≥ 7.00

Dear colleague, please send me the reported pIC50 for CC(C)(C(=O)O)c1cc(NC(=O)c2cc(F)cc(C(F)(F)F)c2)c2c(c1)C(=O)NC2c1cc(F)ccc1Cl (stereo not shown) when you can.
6.30 to 7.00

Dear colleague, please send me the reported pIC50 for O=C1NC(c2cc(F)ccc2Cl)c2c(NC(=O)N3CC(O)(C(F)(F)F)c4cc(F)ccc43)cc(Cl)cc21 (mixture of isomers) when you can.
≥ 7.00

Dear colleague, please send me the reported pIC50 for O=C(Nc1cc(Br)cc2c1C(c1cc(F)ccc1Cl)NC2=O)c1cc(F)cc(C(F)(F)F)c1Cl (stereo not shown) when you can.
5.00 to 6.00
